Target: Alpha-2B adrenergic receptor (Rattus norvegicus, UniProt P19328)
Sequence (P19328 whole entry): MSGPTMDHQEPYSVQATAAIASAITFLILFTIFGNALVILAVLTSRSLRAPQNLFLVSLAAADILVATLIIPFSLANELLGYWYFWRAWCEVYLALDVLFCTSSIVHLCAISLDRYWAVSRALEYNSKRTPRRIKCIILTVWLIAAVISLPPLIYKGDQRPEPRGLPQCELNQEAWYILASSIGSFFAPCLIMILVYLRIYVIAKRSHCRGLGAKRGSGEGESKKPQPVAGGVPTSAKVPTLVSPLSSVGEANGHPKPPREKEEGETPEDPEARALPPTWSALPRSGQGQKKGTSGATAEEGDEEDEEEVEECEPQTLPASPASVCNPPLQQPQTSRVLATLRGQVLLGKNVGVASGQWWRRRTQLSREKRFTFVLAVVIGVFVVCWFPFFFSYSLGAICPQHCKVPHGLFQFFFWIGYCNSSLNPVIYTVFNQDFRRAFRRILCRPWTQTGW
Values of Ki strictly less than 8 nM map to YES, and values of at least 8 nM map to NO.

INSERT INTO measurements (compound, tgt, cat) VALUES
  ('O=C1NCN(c2ccccc2)C12CCN(CC1COc3ccccc3O1)CC2 (stereo not given)', 'Alpha-2B adrenergic receptor (Rattus norvegicus, UniProt P19328)', 'YES'),
  ('CN1C[C@H](Cn2ccnc2-c2ccccc2)C[C@@H]2c3cccc4[nH]c(Br)c(c34)C[C@H]21', 'Alpha-2B adrenergic receptor (Rattus norvegicus, UniProt P19328)', 'YES'),
  ('COC(=O)C1=CO[C@@H](C)[C@@H]2CN3CCc4c([nH]c5ccccc45)[C@H]3C[C@H]12', 'Alpha-2B adrenergic receptor (Rattus norvegicus, UniProt P19328)', 'NO'),
  ('COC(=O)C1=COC(C)C2CN3CCc4c([nH]c5ccccc45)C3CC12 (stereo not given)', 'Alpha-2B adrenergic receptor (Rattus norvegicus, UniProt P19328)', 'NO');

----------
Assay system Alpha-2C adrenergic receptor; read-out recorded as Ki.
experimental.readout: Ki (nM)

INSERT INTO assay_data (molecule, tgt, readout_value) VALUES
  ('COC(=O)C1=COC(C)C2CN3CCc4c([nH]c5ccccc45)C3CC12 (centres undefined) [Ajmalicine]', 'Alpha-2C adrenergic receptor', 1.71),
  ('COc1cccc(OC)c1OCCNCC1Oc2ccccc2OC1c1ccccc1 (centres undefined) [NSC_185453]', 'Alpha-2C adrenergic receptor', 0.75),
  ('O=C1NCN(c2ccccc2)C12CCN(CC1COc3ccccc3O1)CC2 (centres undefined)', 'Alpha-2C adrenergic receptor', 0.26),
  ('COC(=O)C1=CO[C@@H](C)[C@@H]2CN3CCc4c([nH]c5ccccc45)[C@H]3C[C@H]12 [AKUAMMIGINE]', 'Alpha-2C adrenergic receptor', 20);
